# maps each entry to its cytotoxicity at 70.5 h
experimentalProtocol: Human HepG2 cell viability assay in 384 well format
Format: toxicity, cell-based
Parameters: dose 125 nL, time 70.5 hour; concentration not given beside the values
assayConditions: HepG2 cells, read-out: Inhibition
# output: bare number, implied unit %

molecule	numericResult
O[C@@]1(c2ccccn2)CC[C@H]2CN(Cc3ccccn3)C[C@H]21	-0.173
Cc1cc(NC(=O)CN2CCn3c(C)nnc3C2)no1	-7.43
c1cnc(NCc2noc3c2CN(C2CCOC2)CC3)nc1 (stereo unspecified)	-6.78
Cc1cc(-c2nc(-c3ccccn3)nn2C2CCN(C)CC2)nc(C)n1	-3.28
Cc1nn(CC(=O)Nc2ccc(F)cc2)c(N)c1C#N	-0.498

// query cytotoxicity at 70.5 h value for entry COC(=O)Cc1cccc(NC(=O)Cc2cc(C)[nH]n2)c1
21.3

// query cytotoxicity at 70.5 h value for entry Cc1ccc(C(=O)NCC(O)c2ccc(F)c(F)c2)c(=O)[nH]1 (stereo unspecified)
-10.6

// query cytotoxicity at 70.5 h value for entry O=C(NCc1nncn1C1CC1)c1ccc(F)c(COCC2CC2)c1
7.64

// query cytotoxicity at 70.5 h value for entry CS(=O)(=O)NC1CC2(CCN(CCF)CC2)Oc2ccccc21 (stereo unspecified)
-4.96

###

# maps each entry to its cytotoxicity at 70.5 h
experimentalProtocol: Human HepG2 cell viability assay in 384 well format
Type: toxicity, cell-based
Parameters: dose 125 nL, time 70.5 hour; concentration not given beside the values
assayConditions: HepG2 cells, read-out: Inhibition
# output: bare number, implied unit %

compound	cytotoxicity at 70.5 h (%)
C[C@@H]1CN(C2CCN(c3ccccc3F)CC2)CC[C@]1(C)O	-5.09

// query cytotoxicity at 70.5 h value for entry CC1(c2[nH]ncc2C(N)=O)CCN(c2ncccn2)CC1
17.1

// query cytotoxicity at 70.5 h value for entry CC(C)(O)CCc1ccc(C(=O)N2CCN(CC(F)(F)F)CC2)cc1
3.68

// query cytotoxicity at 70.5 h value for entry COC1COC2(CCN(C(=O)c3cocn3)CC2)C1 (stereo not given)
-8.06

// query cytotoxicity at 70.5 h value for entry CC(C)Cc1nc(CN(C)CCOc2ccccc2F)no1
12.5

###

experimentalProtocol: Human HepG2 cell viability assay in 384 well format
Type: toxicity, cell-based
Set-up: dose 125 nL, time 70.5 hour; concentration not given beside the values
assayConditions: HepG2 cells, read-out: Inhibition
experimentalEndpoint: cytotoxicity at 70.5 h (%)
# output: bare number, implied unit %

Here's what some known entries look like.
compound	cytotoxicity at 70.5 h (%)
CCC1c2ccsc2CCN1C(=O)NCc1cccnc1OC (stereo not drawn)	-11.2
Cc1cc(C)nc(Nc2cccc(C3CCCN(CC4CC4)C3)n2)n1 (stereo not drawn)	-5.69

As a next step, examine the compound that follows.
// query cytotoxicity at 70.5 h value for entry CC(C)N(Cc1ccccn1)C(=O)CCC(=O)c1ccc(F)cc1F
-14.3

###

experimentalProtocol: Human HepG2 cell viability assay in 384 well format
Type: toxicity, cell-based
Parameters: dose 125 nL, time 70.5 hour; concentration not given beside the values
assayConditions: HepG2 cells, read-out: Inhibition
# maps each entry to its cytotoxicity at 70.5 h
# output: bare number, implied unit %

Here's what some known entries look like.
molecule	unitTag	cytotoxicity at 70.5 h
OCCN1CCC(c2cncc(-c3cccc(Cl)c3)n2)CC1	%	-3.96
CN(Cc1ccccc1)CC(O)Cn1cnc2cc(F)ccc2c1=O (centres undefined)	%	-7.28
Cn1cc(-c2ncnc3c2CCN(C(=O)c2cscn2)CC3)cn1	%	22.4
CC(C)N1CCCC(CCCc2ccccn2)(C(=O)O)C1 (centres undefined)	%	-14.7
O=C(c1ccccc1)N1CCC[C@]2(C[C@@H](Oc3ncccc3F)CO2)C1	%	23.2
O=C1NCCN(C(=O)CN2CCOC2=O)C1c1cccc(F)c1 (centres undefined)	%	-18.2
CCc1ccc(NC(C(N)=O)c2ccc(F)cc2)cc1 (centres undefined)	%	-5.1
CCCc1nnc2sc(C3CCN(CC)CC3)nn12	%	-13.4
CSc1ccc(C(=O)N2CCCC(Nc3ccc(F)cc3)C2)cc1 (centres undefined)	%	-0.171
Cc1ccc(N2CCC3(CCN(Cc4csc(C)n4)CC3)CC2)nn1	%	-6.42

// query cytotoxicity at 70.5 h value for entry CC(C)[C@H](N)CC(=O)Nc1nc(-c2cnc(N3CCOCC3)nc2)cs1
-1.39

// query cytotoxicity at 70.5 h value for entry CC(C)C(=O)N1CCC(C2C(=O)Nc3ccccc32)CC1 (centres undefined)
-16.1

// query cytotoxicity at 70.5 h value for entry O=C(NC1CCC1)[C@H]1C[C@H]2NCCO[C@@H]2C1
4.07

// query cytotoxicity at 70.5 h value for entry Cc1ccccc1OCCN1CCN(Cc2cnn(CCO)c2)CC1
4.76

Data provenance is ChEMBL document CHEMBL3507680.
